Catalogue of substances with associated EC50
- EXPERIMENTAL TARGET: NK2R (Homo sapiens, UniProt P21452)
- Construct: host or cells: COS7
- Sequence (P21452 whole entry): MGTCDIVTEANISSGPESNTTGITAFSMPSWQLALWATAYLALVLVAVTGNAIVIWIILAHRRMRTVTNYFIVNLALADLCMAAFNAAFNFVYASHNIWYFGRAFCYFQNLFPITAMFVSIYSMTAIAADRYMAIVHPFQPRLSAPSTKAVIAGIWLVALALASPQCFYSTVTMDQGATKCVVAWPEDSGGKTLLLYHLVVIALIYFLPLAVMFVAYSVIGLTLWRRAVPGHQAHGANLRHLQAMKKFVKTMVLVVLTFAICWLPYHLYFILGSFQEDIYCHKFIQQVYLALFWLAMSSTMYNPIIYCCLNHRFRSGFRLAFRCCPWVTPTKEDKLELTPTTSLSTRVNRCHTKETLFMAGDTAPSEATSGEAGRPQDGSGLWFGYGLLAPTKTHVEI
- PROTOCOL NOTES: IP3 (IP accumulation) assay, wildtype NK2R
- Type: cell-based
Where no end group is shown, it is not given here.

Reference set (3 entries):
# SUBSTANCE, EXPERIMENTAL TARGET, EC50
rows = [
    ("HKTDSFVGLA-NH2 [Ala10]", "NK2R (Homo sapiens, UniProt P21452)", "0.0319 µM"),
    ("HKADSFVGLM-NH2 [Ala3]", "NK2R (Homo sapiens, UniProt P21452)", "0.000598 µM"),
    ("HATDSFVGLM-NH2 [Ala2]", "NK2R (Homo sapiens, UniProt P21452)", "0.00068 µM"),
]

(Q) # query: EC50 of entry HKTDAFVGLM-NH2 [Ala5]
(A) 0.0259 µM

Reference source: paper PMC10724690
